- System: Yeast (S. cerevisiae strains)
- protocol_details: MIC, yeast (strain not specified)
- Type: cell-based, Saccharomyces cerevisiae
- test_context: Saccharomyces cerevisiae; yeast strain not specified (Tables 5 and 10); read-out: MIC Yeast
The reader will find reported MIC values listed item by item below.
Numbers only; they are read as µg/mL.

c1cc2c(cc1CNCCCNCCCCNCCCNCc1ccc3c(c1)OCO3)OCO2 [Compound 2a] ... 250
NCCN1CCNCc2cccc(n2)CNCC1 [Compound 5b] ... 110

// below: MIC requested for another compound
Using the record for c1cc2nc(c1)CNCCN(CCNCc1ccc3c(c1)CCO3)CCNC2 [Compound 8a] , report its MIC.
400

###

The reader will find reported MIC values listed item by item below.
- Tested on: Saccharomyces cerevisiae BY4741/YEplac195
- protocol_details: microbe, parasite or virus in culture
- Assay type: cell-based
- test_context: Saccharomyces cerevisiae; 24 h, 30 °C; average of at least three experiments; read-out: MIC, Yeast, BY4741/ YEplac195

Past entries and their recorded results:
NCCCCNCCCN [Compound 1b, spermidine, reference compound] ... > 400 µg/mL
c1cc2c(cc1CNCCCCNCCCNCc1ccc3c(c1)OCO3)OCO2 ... > 400 µg/mL

// below: MIC requested for another compound
Using the record for `c1cc2c(cc1CNCCN(CCNCc1ccc3c(c1)OCO3)CCNCc1ccc3c(c1)OCO3)OCO2` , report its MIC.
> 400 µg/mL
